Reference for the values: ChEMBL document CHEMBL1140415

Exercise: for every item that follows, state its recorded IC50.
target: Human immunodeficiency virus type 1 reverse transcriptase (Human immunodeficiency virus 1, UniProt Q72547); test: Inhibition of recombinant HIV-1 reverse transcriptase activity

- COC(=O)CCC/C=C(\c1cc(F)cc(C(F)(F)F)c1)c1cc(C)c2on(C)c(=O)c2c1: > 100 µM

Give measured IC50 for every item shown.
1. COC(=O)CCC/C=C(\c1cccc(C#N)c1)c1cc(Cl)c(OC)c(C(=O)OC)c1
2. COC(=O)CCC/C=C(/c1cc(C)c(OC)c(C(=O)OC)c1)c1cc(Cl)ccc1OC
3. COc1ccc(/C(=C\CCN2CCOC2=O)c2cc(F)cc(C(F)(F)F)c2)cc1OC
4. COC(=O)CCC/C=C(\c1cc(F)cc(C(F)(F)F)c1)c1cc(Cl)c(OC)c(C(=O)OC)c1

0.75 µM
> 100 µM
97.8 µM
> 100 µM

----------
experiment: In vitro hydrolytic stability in rat plasma, expressed as t1/2; assay type: ADME, cell-free
readout: log10 half-life (log10 of the value in s)
Values reflect log10 of reported half-life (s).

Solved entries:
* COC(=O)CCC/C=C(\c1cccc(C#N)c1)c1cc(C)c(OC)c(C(=O)OC)c1 | 1.63
* COC(=O)CCC/C=C(\c1cc(C)c(OC)c(C(=O)OC)c1)c1cc(Cl)ccc1OC | 1.45
* COC(=O)c1cc(/C(=C\CCN2CCOC2=O)c2cc(F)cc(C(F)(F)F)c2)cc(C)c1OC | 2.75
* COC(=O)CCC/C=C(\c1cccc(C#N)c1)c1cc(Cl)c(OC)c(C(=O)OC)c1 | 1.42
* COC(=O)CCC/C=C(/c1cc(C)c(OC)c(C(=O)OC)c1)c1cc(Cl)ccc1OC | 1.77
* COC(=O)c1cc(C(=CCCN2CCOC2=O)c2ccc(OC)c(OC)c2)cc(C)c1OC | 1.68

Give measured log10 half-life for every item shown.
1. COC(=O)CCC/C=C(/c1cc(F)cc(C(F)(F)F)c1)c1cc(C)c(OC)c(C(=O)OC)c1
2. COC(=O)CCC/C=C(/c1cc(C)c2on(C)c(=O)c2c1)c1cc(Cl)ccc1OC

1: 2.42; 2: 1.46

----------
Exercise: for every item that follows, state its recorded EC50.
test system: Human immunodeficiency virus 2; test: In vitro anti-HIV activity against HIV-2ROD infected in MT-4 cells using MTT assay; type: functional, organism-based; conditions: Human immunodeficiency virus 2, MT4

• COC(=O)c1cc(/C(=C\CCN2CCOC2=O)c2cc(F)cc(C(F)(F)F)c2)cc(C)c1OC = > 22.6 µM
• COC(=O)c1cc(C(=CCCN2CCOC2=O)c2ccc(OC)c(OC)c2)cc(C)c1OC = > 35.4 µM

Give measured EC50 for every item shown.
1. COc1ccc(/C(=C\CCN2CCOC2=O)c2cc(F)cc(C(F)(F)F)c2)cc1OC
2. COC(=O)CCC/C=C(\c1cccc(C#N)c1)c1cc(C)c(OC)c(C(=O)OC)c1

1: > 13.4 µM; 2: > 169 µM

Field EC50 (entry COC(=O)c1cc(/C(=C\CCN2CCOC2=O)c2ccc(OC)c(OC)c2)cc(C)c1OC ) reads > 1.05 µM

----------
biological target: Human immunodeficiency virus type 1 reverse transcriptase (Human immunodeficiency virus 1); assay: Inhibition of recombinant HIV-1 reverse transcriptase activity
Exercise: for every item that follows, state its recorded log10 IC50.
Values reflect log10 of reported IC50 (µM).

Solved entries:
• COC(=O)CCC/C=C(\c1cccc(C#N)c1)c1cc(C)c(OC)c(C(=O)OC)c1 = -0.08
• COC(=O)CCC/C=C(\c1cccc(C#N)c1)c1cc(C)c2onc(OC)c2c1 = 0.76
• COC(=O)c1cc(/C(=C\CCN2CCOC2=O)c2cc(F)cc(C(F)(F)F)c2)cc(C)c1OC = 1.20
• COC(=O)CCC/C=C(/c1cc(F)cc(C(F)(F)F)c1)c1cc(C)c(OC)c(C(=O)OC)c1 = 1.74

In the following, a different compound is considered.
Field log10 IC50 (entry COC(=O)CCC/C=C(\c1cc(F)cc(C(F)(F)F)c1)c1cc(C)c2onc(OC)c2c1 ) reads -0.05

----------
Exercise: for every item that follows, state its recorded IC50.
target: Human immunodeficiency virus type 1 reverse transcriptase (Human immunodeficiency virus 1, UniProt Q72547); assay: Inhibition of recombinant HIV-1 reverse transcriptase activity
Numbers only, in µM.

Solved entries:
* COC(=O)CCC/C=C(/c1cc(C)c2on(C)c(=O)c2c1)c1cc(Cl)ccc1OC | 8.2
* COC(=O)c1cc(/C(=C\CCN2CCOC2=O)c2ccc(OC)c(OC)c2)cc(C)c1OC | 1
* COC(=O)CCC/C=C(/c1ccc(OC)c(OC)c1)c1cc(C)c(OC)c(C(=O)OC)c1 | 0.074

Field IC50 (entry COC(=O)CCC/C=C(\c1cccc(C#N)c1)c1cc(Cl)ccc1OC ) reads 7.58
